- target.under.test: T1, cynomolgus Trop-2-His protein (cynomolgus, UniProt P09758 27-274 (human entry))
- T1 construct: also called cynmolgus Trop-His; Kactus Cat #TRP-CM121; not shown: His tag
- T1 chain: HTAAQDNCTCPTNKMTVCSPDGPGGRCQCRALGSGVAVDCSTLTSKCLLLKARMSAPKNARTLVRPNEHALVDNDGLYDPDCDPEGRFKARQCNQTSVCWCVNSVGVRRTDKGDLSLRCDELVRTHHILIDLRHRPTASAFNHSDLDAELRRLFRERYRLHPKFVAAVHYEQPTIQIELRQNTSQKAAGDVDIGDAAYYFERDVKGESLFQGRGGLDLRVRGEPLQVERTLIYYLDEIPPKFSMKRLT
- test.protocol: BLI (Gator Prime), LEM supernatant Ab on HFC probe
recorded.endpoint: koff (s⁻¹)
Give bare numbers, in s⁻¹.

Record excerpt, results attached:
| binder | measurement.unit | koff |
| --- | --- | --- |
| 3E9 (antibody, V domains shown, Rabbit-derived clone; LEM construct: VH + rabbit IgG CH1 + human IgG1 CH2-CH3) VH: QEQLKESGGGLVQPGGSLKLSCKASGFDFNNYGVSWVRQAPGKGLEWIAYIYPAFHNRYYANWVNGRFTISSDNAQNTVYLQLNSLTAADTATYFCARDAGSTDYKFNLWGPGTLVTVSS VL: DVVMTQTPASVSAAVGGTVTIKCQASEDIESYLAWYQQKPGQPPKLLIYDASTLASGVSSRFSGSGYGTEFTLTISGVECADAATYYCQQDLTVGNVDNPFGGGSEVVVE | s⁻¹ | 0.00038 |
| 69H10 (antibody, V domains shown, Rabbit-derived clone; LEM construct: VH + rabbit IgG CH1 + human IgG1 CH2-CH3) VH: QEQLKESGGGLVQPGGSLKLSCKASGFDFNKYGVSWVRQAPGKGLEWIAYIYPAFHNTYYATWVNGRFTISSHNAQNTLYLQLNTLTAADTATYFCARDAGTTDYNFNLWGPGTLVTVSS VL: DVVMTQTASPVSAAVGGTVTIKCQASQSIYSYLSWYQQKPGQPPKLLIYEASKLASGVSSRFSGSGYGTEFTLTISGVECADAATYYCQQALTVGNVDNPFGGGSEVVVK | s⁻¹ | 0.00053 |

q: Report koff, nothing else, for this binder: 10A9 (antibody, V domains shown, Rabbit-derived clone; LEM construct: VH + rabbit IgG CH1 + human IgG1 CH2-CH3) VH: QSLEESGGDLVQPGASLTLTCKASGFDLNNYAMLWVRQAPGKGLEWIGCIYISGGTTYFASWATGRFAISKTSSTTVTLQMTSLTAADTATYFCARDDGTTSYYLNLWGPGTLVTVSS VL: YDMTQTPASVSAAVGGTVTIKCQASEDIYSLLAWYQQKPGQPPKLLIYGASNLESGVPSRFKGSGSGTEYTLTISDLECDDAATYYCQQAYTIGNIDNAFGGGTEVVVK
a: 5.3e-05
